Molecular target: Protein kinase C epsilon type (Homo sapiens) (UniProt Q02156)
Sequence (whole entry): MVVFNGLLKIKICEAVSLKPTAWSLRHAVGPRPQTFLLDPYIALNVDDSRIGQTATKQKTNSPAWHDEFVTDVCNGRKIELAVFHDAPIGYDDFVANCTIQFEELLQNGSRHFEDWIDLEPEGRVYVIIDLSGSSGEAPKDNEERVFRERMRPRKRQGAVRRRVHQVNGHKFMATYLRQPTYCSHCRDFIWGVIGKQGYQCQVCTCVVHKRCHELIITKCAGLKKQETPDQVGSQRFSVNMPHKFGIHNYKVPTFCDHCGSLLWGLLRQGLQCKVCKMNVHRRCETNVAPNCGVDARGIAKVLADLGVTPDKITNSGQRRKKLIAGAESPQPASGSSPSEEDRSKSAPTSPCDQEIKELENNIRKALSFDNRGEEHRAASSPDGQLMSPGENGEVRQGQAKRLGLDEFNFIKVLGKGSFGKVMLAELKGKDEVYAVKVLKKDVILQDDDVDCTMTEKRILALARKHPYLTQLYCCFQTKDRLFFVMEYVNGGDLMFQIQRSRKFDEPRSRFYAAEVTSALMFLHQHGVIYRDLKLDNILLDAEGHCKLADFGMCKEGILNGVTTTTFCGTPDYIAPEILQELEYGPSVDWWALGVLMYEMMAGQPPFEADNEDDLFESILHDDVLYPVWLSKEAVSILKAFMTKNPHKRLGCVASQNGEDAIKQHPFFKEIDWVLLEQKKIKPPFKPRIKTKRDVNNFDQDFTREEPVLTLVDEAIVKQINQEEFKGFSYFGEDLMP
Experiment: Inhibition of N-terminal GST-fused PKCepsilon (1-737) expressed in baculovirus expression system at 30 uM after 1 hr by off-chip mobility shift assay relative to control
metric-name: inhibition (%)

CCCCCCCCCCCCCC[C@@H]1OC[C@H](N)[C@@H]1O ... 37.4
CCCCCCCCCCCCCC[C@@H]1OC[C@@H](N)[C@@H]1O ... 29.2

[A] CCCCCCCCCCCCC/C=C/[C@@H](O)[C@H](CO)N(C)C
[B] CCCCCCCCCCCCCC[C@H]1OC[C@@H](N)[C@@H]1O
q: Exercise: compare A and B ; which one has the greater inhibition? // respond with label for picked entry
a: A
(A: 40.4%, B: 26.3%)
